src = the supplement of paper PMC10567573

B1: FBF1 (parent)
chain: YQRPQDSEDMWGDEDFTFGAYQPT

Variants of: B1
Experimental details: protein stability index of a GFP-peptide fusion (GPS, HEK-293T) (PSI 1-6); higher = more stable;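 also: lentivirally expressed fusions sorted by FACS into six bins by GFP to DsRed ratio, PSI derived from sequencing read proportions per bin multiplied by bin number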
Condition summary: c terminus: a fixed tail appended
Could you please report measured protein stability index for the items listed next?
Reply briefly: the number, and no unit.

Data point: YQRPQDSEDMWADEDFTFGAYQPT [G12A] ; protein stability index = 2.92

Data point: YQRPNDSEDMWGDEDFTFGAYQPT [Q5N] ; protein stability index = 3.03

Data point: YQYPQDSEDMWGDEDFTFGAYQPT [R3Y] ; protein stability index = 3.09

Data point: YQRPQDSEDMWGDEDFTWGAYQPT [F18W] ; protein stability index = 2.53

Data point: YQRPQDSEDMWGDEDFTFGSYQPT [A20S] ; protein stability index = 2.69

Data point: YQRPQDSEDMWGDEDFTFGAYQPR [T24R] ; protein stability index = 2.38

Data point: YQRPQDSEDMWGDEDFTFGAMQPT [Y21M] ; protein stability index = 2.78

Data point: YQRPQDSEDMWGDEDFPFGAYQPT [T17P] ; protein stability index = 2.93

Data point: YQRPQDSEDMWGDEDFTFGAYQPQ [T24Q] ; protein stability index = 2.68

Data point: YQRPQDSEDMWGDEDHTFGAYQPT [F16H] ; protein stability index = 3

Data point: YQRPQDSEDMWGDEDDTFGAYQPT [F16D] ; protein stability index = 3.48

Data point: YQRPQDSEDMQGDEDFTFGAYQPT [W11Q] ; protein stability index = 4.78

Data point: YQRPQDSEDMWWDEDFTFGAYQPT [G12W] ; protein stability index = 2.71

Data point: YQRPQDTEDMWGDEDFTFGAYQPT [S7T] ; protein stability index = 2.35

Data point: YQRPKDSEDMWGDEDFTFGAYQPT [Q5K] ; protein stability index = 2.01

Data point: YQRPQDSEDMWGDTDFTFGAYQPT [E14T] ; protein stability index = 2.15

Data point: YQRPQDMEDMWGDEDFTFGAYQPT [S7M] ; protein stability index = 2.37

Data point: YFRPQDSEDMWGDEDFTFGAYQPT [Q2F] ; protein stability index = 3.25

Data point: YQRPQDSELMWGDEDFTFGAYQPT [D9L] ; protein stability index = 1.44

Data point: YQRPQDSEDMWGDEDFTFGAYQST [P23S] ; protein stability index = 2.61

Data point: YQRPQDSEDMWGDEDFTFGADQPT [Y21D] ; protein stability index = 3.73

Data point: YCRPQDSEDMWGDEDFTFGAYQPT [Q2C] ; protein stability index = 2.7

Data point: YQRPQDSEDMWGDWDFTFGAYQPT [E14W] ; protein stability index = 2.21

Data point: VQRPQDSEDMWGDEDFTFGAYQPT [Y1V] ; protein stability index = 3.92

Data point: YQRPQDSEDMWGDEDFTFGAYQFT [P23F] ; protein stability index = 2.74

Data point: YQRPQDSEDMWGDEDFTFSAYQPT [G19S] ; protein stability index = 3.18

Data point: YQRPQDSEDMWGDEDFTAGAYQPT [F18A] ; protein stability index = 3.43

Data point: YQRPQDIEDMWGDEDFTFGAYQPT [S7I] ; protein stability index = 2.99

Data point: YQRPQDNEDMWGDEDFTFGAYQPT [S7N] ; protein stability index = 3.2

Data point: YQRPQDSVDMWGDEDFTFGAYQPT [E8V] ; protein stability index = 1.7

Data point: YQRPQDSEDMWGDENFTFGAYQPT [D15N] ; protein stability index = 2.13

Data point: YARPQDSEDMWGDEDFTFGAYQPT [Q2A] ; protein stability index = 2.79

Data point: YQRPQDDEDMWGDEDFTFGAYQPT [S7D] ; protein stability index = 3.68

Data point: YQRPPDSEDMWGDEDFTFGAYQPT [Q5P] ; protein stability index = 2.52

Data point: YQRPQDSEDMWGDEDFTFGAAQPT [Y21A] ; protein stability index = 3.51

Data point: YQRPQDSEDMWGDEDFTFGAYQKT [P23K] ; protein stability index = 2.68

Data point: YQRPQDSEDMWGDEDFTFGAYQLT [P23L] ; protein stability index = 2.87

Data point: YQRPEDSEDMWGDEDFTFGAYQPT [Q5E] ; protein stability index = 3.76

Data point: YQRQQDSEDMWGDEDFTFGAYQPT [P4Q] ; protein stability index = 2.54

Data point: YQRPQDSEDMWGDEDFTFGAYQPC [T24C] ; protein stability index = 2.83

Data point: YQRHQDSEDMWGDEDFTFGAYQPT [P4H] ; protein stability index = 2.97

Data point: YQRLQDSEDMWGDEDFTFGAYQPT [P4L] ; protein stability index = 2.74

Data point: YQRPQDSEDMWGDCDFTFGAYQPT [E14C] ; protein stability index = 2.11

Data point: YQRPQDSDDMWGDEDFTFGAYQPT [E8D] ; protein stability index = 2.47

Data point: YQRPQDSEDMWGDEDATFGAYQPT [F16A] ; protein stability index = 2.9

Data point: YQRPQDSEDMWGFEDFTFGAYQPT [D13F] ; protein stability index = 2.18

Data point: YQRPQDSEDMWGLEDFTFGAYQPT [D13L] ; protein stability index = 2.45

Data point: YQRPQDSEDMWIDEDFTFGAYQPT [G12I] ; protein stability index = 2.43

Data point: RQRPQDSEDMWGDEDFTFGAYQPT [Y1R] ; protein stability index = 3.94

Data point: YQRPQDSEDMKGDEDFTFGAYQPT [W11K] ; protein stability index = 4.27

Data point: FQRPQDSEDMWGDEDFTFGAYQPT [Y1F] ; protein stability index = 2.58

Data point: YQRPQDSEDMWGDEDFAFGAYQPT [T17A] ; protein stability index = 3.46

Data point: YQRPQDSEDFWGDEDFTFGAYQPT [M10F] ; protein stability index = 1.86

Data point: NQRPQDSEDMWGDEDFTFGAYQPT [Y1N] ; protein stability index = 4.62

Data point: YQRPQDSEDMWGDEDFTFKAYQPT [G19K] ; protein stability index = 2.51

Data point: YQRPQDSEDMWGDEDFTFGAYTPT [Q22T] ; protein stability index = 2.28

Data point: YQRPQDSEEMWGDEDFTFGAYQPT [D9E] ; protein stability index = 3.21

Data point: YQRDQDSEDMWGDEDFTFGAYQPT [P4D] ; protein stability index = 3.39

Data point: YQRPQDSEDMWQDEDFTFGAYQPT [G12Q] ; protein stability index = 3.13

Data point: YQRPQDSEPMWGDEDFTFGAYQPT [D9P] ; protein stability index = 2.02

Data point: YQRPQDSEDMWGDEDWTFGAYQPT [F16W] ; protein stability index = 2.73
